target: recombinant human α1D receptor (Homo sapiens, UniProt P25100); construct: expressed in transfected cells; host or cells: HEK293; test: Adrenergic α1D selectivity binding assay ([3H]-prazosin); conditions: inhibition of [3H]-prazosin (0.3 nM) binding, HEK293 membranes; read-out: α1 bind pIC50 (converted)
Sequence (P25100 whole entry): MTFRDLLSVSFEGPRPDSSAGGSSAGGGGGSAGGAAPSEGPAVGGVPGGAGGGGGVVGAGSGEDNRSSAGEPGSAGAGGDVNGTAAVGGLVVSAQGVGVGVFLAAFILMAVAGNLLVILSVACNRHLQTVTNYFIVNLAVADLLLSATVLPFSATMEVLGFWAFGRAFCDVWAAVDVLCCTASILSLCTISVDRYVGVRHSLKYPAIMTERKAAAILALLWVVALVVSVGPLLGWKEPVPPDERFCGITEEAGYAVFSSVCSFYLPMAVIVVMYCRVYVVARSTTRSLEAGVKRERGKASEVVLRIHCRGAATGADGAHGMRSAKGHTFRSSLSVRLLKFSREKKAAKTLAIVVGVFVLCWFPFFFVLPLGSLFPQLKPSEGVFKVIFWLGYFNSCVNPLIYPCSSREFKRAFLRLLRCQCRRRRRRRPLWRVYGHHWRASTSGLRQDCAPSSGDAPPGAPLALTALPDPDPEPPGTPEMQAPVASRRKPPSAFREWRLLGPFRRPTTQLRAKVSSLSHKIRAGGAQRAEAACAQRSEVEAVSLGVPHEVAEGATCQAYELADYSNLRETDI
Where a name gives a salt, the structure may show the parent alone.
# label = class 1 if IC50 < 0.1 µM else class 0

Please determine if CC(C)(C)CN(CCNCCc1ccc(O)c2[nH]c(=O)sc12)C(=O)CCNCCc1ccccc1 [Example 6, bis-trifluoroacetic acid salt] is below 0.1 µM in terms of IC50. class 0

Here is the next compound: O=C(CCNCCc1ccc(F)cc1F)N(CCNCCc1ccc(O)c2[nH]c(=O)sc12)C1CCCCCC1 [Example 55, bis-trifluoroacetic acid salt] class 1

Here is the next compound: O=C(CCNCCc1ccccc1Cl)N(CCNCCc1ccc(O)c2[nH]c(=O)sc12)C1CCC(F)(F)CC1 [Example 46, bis-trifluoroacetic acid salt] class 0

Here is the next compound: CC(C)N(CCNCCc1ccc(O)c2[nH]c(=O)sc12)C(=O)CCNCCc1ccc(Cl)cc1 [Example 3, bis-trifluoroacetic acid salt] class 0
